The measured values listed here are drawn from patent EP4703388A1.

- targetEntity: T1, human tissue factor (TF) on MDA-MB-231, NCI-H358 and HCT116 cells (human, UniProt P13726 33-295)
- T1 construct: whole, on cells; also called TF antigen; CD142
- methodDescription: flow cytometry on MDA-MB-231 cells
Below, each entry is listed with its recorded EC50.
Lab book: enter the figure in nM, no units written.

Record excerpt, results attached:
>>> observed("hu10H10-37 (antibody, V domains shown, H11+L3; Full-length IgG) VH: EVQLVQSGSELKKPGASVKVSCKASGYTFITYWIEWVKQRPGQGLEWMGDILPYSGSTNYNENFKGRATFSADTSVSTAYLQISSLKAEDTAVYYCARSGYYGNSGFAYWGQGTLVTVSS VL: DIQMTQSPSSLSASVGDRVTITCKSSQSLLSSGNQKNYLTWYQQKPGKAPKLLIYWASTREEGVPSRFSGSGSGTDFTLTISSLQPEDFATYYCQNDYTYPLTFGQGTKLEIK")
1.07
>>> observed("hu310-12 (antibody, human IgG1, kappa, V domains shown) VH: EVQLVQSGAEVKKPGASVKVSCKASGYSFTGYYMNWVRQAPGQGLEWMGEINPSTGGSTYNQKFKARVTLTVDQSTNTAYMELSSLRSEDTAVYYCARRELGGPFGYWGQGTTVTVSS VL: DIQMTQSPSSLSASVGDRVTITCKASQSVSNGIAWYQQKPGKAPKLLIYFASNRYTGVPSRFSGSGSGTDFTFTISSLQPEDIATYYCQQDYSSPWTFGGGTKVEIKR")
1.95

Sample hu310-3 (antibody, human IgG1, kappa, V domains shown) VH: EVQLVQSGAEVKKPGASVKVSCKASGYSFTGYYMNWVRQAPGQGLEWMGEINPSTGGSTYNQKFKARVTMTVDQSTSTVYMELSSLRSEDTAVYYCARRELGGPFGYWGQGTTVTVSS VL: SIVMTQSPKFLAVSLGERATINCKASQSVSNGIAWYQQKPGQSPKLLIYFASNRYTGVPDRFSGSGYGTDFTFTISSLQAEDVAVYYCQQDYSSPWTFGGGTKVEIKR — what was its EC50?
1.83

Sample hu310-14 (antibody, human IgG1, kappa, V domains shown) VH: EVQLVQSGAEVKKPGASVKVSCKASGYSFTGYYMNWVRQAPGQGLEWMGEINPSTGGSTYNQKFKARVTLTVDQSTNTAYMELSSLRSEDTAVYYCARRELGGPFGYWGQGTTVTVSS VL: SIQMTQSPSSLSASVGDRVTITCKASQSVSQGIAWYQQKPGKSPKLLIYFASNRYTGVPSRFSGSGYGTDFTFTISSLQPEDIATYYCQQDYSSPWTFGGGTKVEIKR — what was its EC50?
1.76

Sample hu310-16 (antibody, human IgG1, kappa, V domains shown) VH: EVQLVQSGAEVKKPGASVKVSCKASGYSFTGYYMNWVRQAPGQGLEWMGEINPSTGGSTYNQKFKARVTLTVDQSTNTAYMELSSLRSEDTAVYYCARRELGGPFGYWGQGTTVTVSS VL: SIQMTQSPSSLSASVGDRVTITCKASQSVSTGIAWYQQKPGKSPKLLIYFASNRYTGVPSRFSGSGYGTDFTFTISSLQPEDIATYYCQQDYSSPWTFGGGTKVEIKR — what was its EC50?
2.26

Sample hu10H10-53 (antibody, V domains shown, H11+L6; Full-length IgG) VH: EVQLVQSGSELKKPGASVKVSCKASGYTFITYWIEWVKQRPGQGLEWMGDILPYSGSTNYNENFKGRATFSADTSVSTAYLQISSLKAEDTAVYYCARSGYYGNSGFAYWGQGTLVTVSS VL: DIQMTQSPSSLSASVGDRVTITCKSSQSLLSSSNQKNYLTWYQQKPGKAPKLLIYWASTREEGVPSRFSGSGSGTDFTLTISSLQPEDFATYYCQNDYTYPLTFGQGTKLEIK — what was its EC50?
1.09

Sample hu10H10-40 (antibody, V domains shown, H14+L3 (printed bu10H10-40); Full-length IgG; also called bu10H10-40) VH: EVQLVQSGSELKKPGASVKVSCKASGYTFITYWIEWVRQRPGQGLEWMGDILPGSGWTNYNENFKGRAVFSADTSVSTAYLQISSLKAEDTAVYYCARSGYYGNSGFAYWGQGTLVTVSS VL: DIQMTQSPSSLSASVGDRVTITCKSSQSLLSSGNQKNYLTWYQQKPGKAPKLLIYWASTREEGVPSRFSGSGSGTDFTLTISSLQPEDFATYYCQNDYTYPLTFGQGTKLEIK — what was its EC50?
1.07
